Origin of measurements: patent US20250066456A1

target: BV2562 (recombinant CoV S glycoprotein, BA.4.6) (SARS-CoV-2, UniProt P0DTC2 14-1273); assay: hACE2 receptor inhibition ELISA on coated rS; competitor hACE2-His
PARAMETER_MEASURED: IC50

May I ask what IC50 has been recorded for 35.13 (antibody, V domains shown) VH: QVQLQQSGAELGKPGASVKLSCRASGYTFTRYYIYWVKQRPGQGLEWIGEINPSNGDTHFNEKFKTKATLTVDKSSSSAHIHLTSLTSEDSAVYYCSIHAYSFDFWGQGTTLTVSS VL: EIQMTQSPSSMSASLGDRITITCQATQDIVKNLNWYQQKPGKPPSFLIYHATELAKGVPSRFSGSGSGSDYSLTISNLESEDFADYYCLQFYDFPFTFGAGTKLELKR ?
> 5 µg/mL
